Reference source for all entries: ChEMBL document CHEMBL1135268

- studyTarget: Plasminogen activator inhibitor 1 (Homo sapiens, UniProt P05121)
- Sequence (P05121 whole entry): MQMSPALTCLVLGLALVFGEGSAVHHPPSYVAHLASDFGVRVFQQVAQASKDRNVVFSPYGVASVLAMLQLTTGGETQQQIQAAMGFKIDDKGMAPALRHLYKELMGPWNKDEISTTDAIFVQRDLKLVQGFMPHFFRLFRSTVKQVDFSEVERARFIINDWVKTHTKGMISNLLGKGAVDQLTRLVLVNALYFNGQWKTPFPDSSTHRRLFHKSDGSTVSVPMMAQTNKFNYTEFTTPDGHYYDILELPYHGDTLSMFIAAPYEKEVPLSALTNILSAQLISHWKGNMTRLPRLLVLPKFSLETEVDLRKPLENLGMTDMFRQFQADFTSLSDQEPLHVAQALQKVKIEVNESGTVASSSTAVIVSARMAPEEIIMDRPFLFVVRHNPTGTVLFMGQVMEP
- assaySummary: Inhibitory activity against human plasminogen activator inhibitor-1 (PAI-1) evaluated by chromogenic assay.
pIC50: −log10 of the molar value.
readoutType: pIC50

compound: O=C(O)CCCCCCCOc1ccc(NC(=O)c2c(O)nc3ccc(-c4csc5ccccc45)cc3c2O)cc1
cmp: =
recordedValue: 6.29

compound: COC(=O)c1cccc(N2CC(O)=C(C(=O)Nc3ccc(OCCCCCCCC(=O)O)cc3)C2=O)c1
cmp: =
recordedValue: 4.75

compound: O=C(O)CCCCCCCOc1ccc(NC(=O)C2=C(O)C(Cc3ccc(O)cc3)NC2=O)cc1 (centres undefined)
cmp: <
recordedValue: 4.30

compound: O=C(O)CCCCCCCOc1ccc(NC(=O)c2c(O)c3c(Cl)cccc3[nH]c2=O)cc1
cmp: =
recordedValue: 5.52

compound: O=C(O)CCCCCCCOc1ccc(NC(=O)c2c(O)c3ccccc3[nH]c2=O)cc1
cmp: =
recordedValue: 5.73

compound: O=C(O)CCCCCCCOc1ccc(NC(=O)c2c(O)c3cccc(-c4cccc5ccccc45)c3[nH]c2=O)cc1
cmp: <
recordedValue: 4.30

compound: O=C(O)CCCCCCCOc1ccc(NC(=O)C2=C(O)CN(Cc3ccccc3)C2=O)cc1
cmp: <
recordedValue: 4.30

compound: O=C(O)CCCCCCCOc1ccc(NC(=O)C2=C(O)CN(c3ccc(Br)cc3)C2=O)cc1
cmp: =
recordedValue: 5.70

compound: O=C(O)CCCCCCCOc1ccc(NC(=O)c2c(O)c3cc(-c4cc5ccccc5s4)ccc3[nH]c2=O)cc1
cmp: =
recordedValue: 6.30
